Molecular target: Macrophage-Derived Chemokine (MDC/CCL22) (Homo sapiens, UniProt O00626)
Sequence (O00626 25-93): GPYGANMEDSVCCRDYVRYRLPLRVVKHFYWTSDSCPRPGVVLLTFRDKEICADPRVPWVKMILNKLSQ
Test: TRIC-r calcium mobilization, Indo-1, EGFP-CCR4+Gqi5+ HEK cells
Quantity: pIC50
A value of pIC50 is the negative decimal logarithm of a concentration given in moles per litre.

Query: Which pIC50 is reported for this molecule? COc1cc(/C=C/C(=O)NCCc2c[nH]c3ccc(O)cc23)ccc1O [N-Feruloylserotonin]
Result: 4.82
